Target: UniProt Q14973
Sequence (Q14973 1-349): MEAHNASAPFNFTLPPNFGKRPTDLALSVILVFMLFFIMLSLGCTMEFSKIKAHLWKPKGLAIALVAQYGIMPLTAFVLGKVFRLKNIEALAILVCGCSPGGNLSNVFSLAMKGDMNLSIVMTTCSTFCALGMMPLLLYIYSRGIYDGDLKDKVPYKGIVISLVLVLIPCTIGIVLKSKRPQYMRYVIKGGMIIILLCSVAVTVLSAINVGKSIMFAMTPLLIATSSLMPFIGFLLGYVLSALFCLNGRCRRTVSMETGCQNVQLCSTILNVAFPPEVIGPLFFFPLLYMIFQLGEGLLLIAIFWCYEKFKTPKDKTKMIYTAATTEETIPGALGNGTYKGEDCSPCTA
Test: Screening taurocholate uptake assay (96-well, [14C]taurocholate, 10 µM drug)
Conditions: screen, 10 µM drug, taurocholate uptake
Structures can show the parent of a compound that is named as a salt.
Lab note: class by B-score functional assay, see bin A = under -1, bin B = from -1 up to -0.4, bin C = -0.4 and over

These solved cases illustrate the format of a correct answer.
molecule: CCCNC(C)C(=O)Nc1c(C)csc1C(=O)OC (stereo not shown) [Articaine hydrochloride]
assigned_class: bin A
--
molecule: Nc1ncnc2c1ncn2[C@@H]1O[C@H](CO)[C@@H](O)[C@@H]1O [Vidarabine]
assigned_class: bin A
--
molecule: Cc1ccc(Cl)c(Nc2ccccc2C(=O)[O-])c1Cl.O.[Na+]
assigned_class: bin A
--
molecule: CCC1=C[C@@H]2CN3CCc4c([nH]c5ccccc45)[C@@](C(=O)OC)(C2)[C@@H]13 [Catharanthine]
assigned_class: bin B
--
molecule: C/C=C(/C(=C/C)c1ccc(O)cc1)c1ccc(O)cc1 [Dienestrol]
assigned_class: bin C

Ask | Exam item: assign CCN(CC)CCOC(=O)c1ccc(N)cc1 [Procaine hydrochloride] to the correct category.
Reply | bin A

Ask | Exam item: assign CC(CN(C)C)CN1c2ccccc2Sc2ccccc21.CC(CN(C)C)CN1c2ccccc2Sc2ccccc21.O=C(O)C(O)C(O)C(=O)O (stereo not shown) [Trimeprazine tartrate] to the correct category.
Reply | bin C

Ask | Exam item: assign COP(=O)(OC)C(O)C(Cl)(Cl)Cl (stereo not shown) [Trichlorfon] to the correct category.
Reply | bin B

Ask | Exam item: assign Cc1ccc(C(=O)c2cc(O)c(O)c([N+](=O)[O-])c2)cc1 [Tolcapone] to the correct category.
Reply | bin A

* * *

target: human NTCP (Homo sapiens); test: Screening taurocholate uptake assay (96-well, [14C]taurocholate, 10 µM drug); conditions: Prestwick library screen, 10 µM drug; B-score of taurocholate uptake
Where a name gives a salt, the structure may show the parent alone.
measure_name: B-score functional assay

Solved entries (count: 4):
molecule: NCC(CC(=O)O)c1ccc(Cl)cc1 (racemic) [Baclofen (R,S)]
target: human NTCP (Homo sapiens)
B-score functional assay: 2.955
--
molecule: CN1CCN(CCCN2c3ccccc3Sc3ccc(S(=O)(=O)N(C)C)cc32)CC1.CS(=O)(=O)O.CS(=O)(=O)O [Thioproperazine dimesylate]
target: human NTCP (Homo sapiens)
B-score functional assay: 0.683
--
molecule: CCC[C@@H]1C[C@@H](C(=O)N[C@@H]([C@H]2O[C@H](SC)[C@H](O)[C@@H](O)[C@H]2O)[C@@H](C)O)N(C)C1 [Lincomycin hydrochloride]
target: human NTCP (Homo sapiens)
B-score functional assay: 0.903
--
molecule: CCCCC1C(=O)N(c2ccccc2)N(c2ccc(O)cc2)C1=O (centres unmarked)
target: human NTCP (Homo sapiens)
B-score functional assay: 2.782

Ask | Which B-score functional assay value is on record for CCOC(=O)C1=C(C)NC(C)=C(C(=O)OCC)C1c1ccccc1/C=C/C(=O)OC(C)(C)C ?
Reply | 0.194
